- system under test: GLP-1R (Homo sapiens, UniProt P43220)
- Sequence (P43220 24-463): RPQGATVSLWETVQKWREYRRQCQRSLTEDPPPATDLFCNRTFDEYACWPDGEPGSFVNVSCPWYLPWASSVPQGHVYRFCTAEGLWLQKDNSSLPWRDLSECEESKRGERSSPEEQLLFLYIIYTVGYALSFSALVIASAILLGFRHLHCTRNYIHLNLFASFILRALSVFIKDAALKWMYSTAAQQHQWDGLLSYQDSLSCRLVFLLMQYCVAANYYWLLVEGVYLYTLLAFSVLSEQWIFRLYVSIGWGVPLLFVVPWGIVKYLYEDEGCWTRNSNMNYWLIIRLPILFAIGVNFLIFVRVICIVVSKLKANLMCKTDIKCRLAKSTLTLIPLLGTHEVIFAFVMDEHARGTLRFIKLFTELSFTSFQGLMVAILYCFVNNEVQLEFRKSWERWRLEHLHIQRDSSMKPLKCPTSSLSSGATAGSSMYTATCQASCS
- Sequence (P01275 100-127 partner limits assumed): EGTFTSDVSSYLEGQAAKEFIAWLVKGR
- experiment notes: EC20 GLP-1(9-36) PAM cAMP assay: dose response of compound in the presence of fixed concentration of GLP-1(9-36)
- condition details: GLP-1R CRE-bla CHO-K1 cells, compound dose response in presence of fixed concentration of GLP-1(9-36)
assay endpoint: EC50

• CCCCCCCOc1ccc(-c2ccc(-c3ccc(C[C@H](NC(=O)c4ccc(C(C)(C)C)s4)C(=O)O)cc3)nn2)cc1 [Compound 279] = 5 to 10 µM
• CC(C)(C)c1ccc(-c2cnc(-c3ccc(C[C@H](NC(=O)c4ccc(O)cc4)C(=O)O)cc3)nc2)cc1 [Compound 175] = < 0.8 µM
• CC(C)(C)c1ccc(C(=O)N[C@@H](Cc2ccc(-c3noc(-c4ccc(-c5ccc(F)cc5)cc4)n3)cc2)C(=O)O)cc1 [Compound 21] = 2.5 to 5 µM
• CC(C)(C)c1ccc(C(=O)N[C@@H](Cc2ccc(-c3ncc(-c4cccc(-c5ccccc5)c4)cn3)cc2)C(=O)O)cc1 [Compound 218] = 2.5 to 5 µM
• CCCCCCCOc1ccc(-c2cnc(-c3ccc(C[C@H](NS(=O)(=O)c4ccc(C)cc4)C(=O)O)cc3)nc2)cc1 [Compound 187] = 2.5 to 5 µM
• CCCCCCCOc1ccc(-c2cnc(-c3ccc(C[C@H](NC(=O)c4ccc(C(F)(F)F)s4)C(=O)O)cc3)nc2)cc1 [Compound 140] = 2.5 to 5 µM
• CCCCCCCOc1ccc(-c2cnc(-c3ccc(C[C@H](NC(=O)c4ncc(C(C)(C)C)s4)C(=O)O)cc3)nc2)cc1 [Compound 142] = < 0.8 µM

====

- system under test: GLP-1R (Homo sapiens)
- experiment notes: EC20 GLP-1(9-36) PAM cAMP assay: dose response of compound in the presence of fixed concentration of GLP-1(9-36)
- condition details: GLP-1R CRE-bla CHO-K1 cells, compound dose response in presence of fixed concentration of GLP-1(9-36)
assay endpoint: EC50

- CCCCCCCOc1ccc(-c2cnc(-c3ccc(C[C@H](NC(=O)c4ccc(CC(C)C)cc4)C(=O)O)cc3)nc2)cc1: 800 to 2500 nM
- CC(C)(C)c1ccc(C(=O)N[C@@H](Cc2ccc(-c3ncc(-c4cccc(F)c4)cn3)cc2)C(=O)O)cc1: 2500 to 5000 nM
- CCCCCCCOc1ccc(-c2cnc(-c3ccc(C[C@H](NC(=O)c4ccc(C(C)(C)C)cc4)C(=O)O)cc3)nc2)cc1: 800 to 2500 nM
- CCCCCCCOc1ccc(-c2cnc(-c3ccc(C[C@H](NC(=O)c4cc5ccc(C)cc5s4)C(=O)O)cc3)nc2)cc1: 800 to 2500 nM

====

- system under test: GLP-1R (Homo sapiens)
- experiment notes: EC20 GLP-1(9-36) PAM cAMP assay: dose response of compound in the presence of fixed concentration of GLP-1(9-36)
- condition details: GLP-1R CRE-bla CHO-K1 cells, compound dose response in presence of fixed concentration of GLP-1(9-36)
pEC50: −log10 of the molar value.
assay endpoint: pEC50

• CCCCCCCOc1ccc(-c2cnc(-c3ccc(C[C@H](NC(=O)c4ccc(C(C)(C)C)s4)C(=O)N[C@@H](CC(=O)O)C(=O)O)cc3)nc2)cc1 = 5.60 to 6.10
• CC(C)Sc1ccc(-c2nc(-c3ccc(C[C@H](NC(=O)c4ccc(C(C)(C)C)cc4)C(=O)O)cc3)no2)cc1 = 5.30 to 5.60
• CCCCCCCOc1ccc(-c2cnc(-c3ccc(C[C@@H](NC(=O)c4ccc(C(C)(C)C)s4)C(=O)N[C@@H](CO)C(=O)O)cc3)nc2)cc1 = > 6.10

Cited source for all entries: patent US8778923B2
